This collection of values is drawn from patent US20080090805A1.

MEASURED_TARGET: native CB1 receptors (Rattus norvegicus, UniProt P20272)
Sequence (P20272 whole entry): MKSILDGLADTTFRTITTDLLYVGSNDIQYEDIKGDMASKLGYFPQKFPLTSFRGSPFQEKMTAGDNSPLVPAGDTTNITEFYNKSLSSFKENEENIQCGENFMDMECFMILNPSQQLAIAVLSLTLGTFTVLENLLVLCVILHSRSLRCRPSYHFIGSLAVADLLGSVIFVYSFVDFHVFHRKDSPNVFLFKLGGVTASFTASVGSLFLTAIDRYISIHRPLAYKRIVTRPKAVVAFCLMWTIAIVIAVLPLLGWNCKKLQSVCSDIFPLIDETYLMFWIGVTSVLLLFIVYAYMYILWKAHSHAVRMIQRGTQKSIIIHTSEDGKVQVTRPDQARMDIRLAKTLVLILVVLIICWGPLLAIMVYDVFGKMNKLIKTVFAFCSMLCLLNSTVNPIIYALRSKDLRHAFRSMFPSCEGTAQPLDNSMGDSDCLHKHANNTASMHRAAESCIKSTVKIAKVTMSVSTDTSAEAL
TEST_PROTOCOL: CB1 receptor rat binding assay ([3H]SR141716A, rat brain membranes)
PROPERTY_NAME: pKi
Reminder that pKi is minus the log10 of a molar concentration.

{"COMPOUND": "O=C(NN1CCCCC1)c1ccc2c(c1)N=C(C1CCCCC1)c1ccccc1O2", "pKi": 7.20}

// below: pKi requested for another compound
Request the reported pKi associated with O=C(NN1CCCCC1)c1ccc2c(c1)N=C(C1CCCCC1)c1ccccc1S2 [drawing 1216]
8.30

====

Emax values for the molecules below.
MEASURED_TARGET: CB1 (mutant) (Homo sapiens, UniProt P21554)
Sequence (P21554 1-417, change not shown): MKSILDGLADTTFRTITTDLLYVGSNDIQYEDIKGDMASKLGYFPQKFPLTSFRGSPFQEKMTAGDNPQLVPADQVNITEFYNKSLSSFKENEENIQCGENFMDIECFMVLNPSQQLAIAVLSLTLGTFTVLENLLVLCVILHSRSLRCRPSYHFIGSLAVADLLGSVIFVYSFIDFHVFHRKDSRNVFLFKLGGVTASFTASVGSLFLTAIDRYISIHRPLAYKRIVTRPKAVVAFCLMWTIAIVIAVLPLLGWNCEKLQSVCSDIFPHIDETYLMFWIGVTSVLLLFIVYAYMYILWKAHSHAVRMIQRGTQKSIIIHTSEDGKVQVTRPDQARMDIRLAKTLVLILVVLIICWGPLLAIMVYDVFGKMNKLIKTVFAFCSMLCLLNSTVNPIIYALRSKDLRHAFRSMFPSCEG
TEST_PROTOCOL: R-SAT functional receptor assay, CB1 (mutant, truncated after amino acid 417)
Type: cell-based
ASSAY_SETUP: Appendix A; R-SAT CB1; receptor form not stated; relative to SR141716 (100%); read-out: % Inhibition
Just the number in %, nothing appended.

{"MOLECULE": "Cc1cccnc1C1=Nc2cc(C(=O)NCCc3cccnc3)ccc2Sc2ccccc21", "PROPERTY_NAME": "Emax", "REPORTED": 28}
{"MOLECULE": "CCCC1=Nc2cc(C(=O)NCCCN3CC(C)CC(C)C3)ccc2Sc2ccccc21 (stereo not shown)", "PROPERTY_NAME": "Emax", "REPORTED": 136}
{"MOLECULE": "C[C@@H]1CCC[C@H](C)N1NC(=O)c1ccc2c(c1)N=C(c1ccccc1F)c1ccccc1S2 [drawing 1149]", "PROPERTY_NAME": "Emax", "REPORTED": 103}
{"MOLECULE": "CCCC1=Nc2cc(C(=O)NCCCN3CCC(c4cc(Cl)ccc4C)CC3)ccc2Sc2ccccc21", "PROPERTY_NAME": "Emax", "REPORTED": 117}

Request the reported Emax associated with O=C(NC1CCCC1)c1ccc2c(c1)N=C(c1cccc(F)c1)c1ccccc1S2 [drawing 742]
100

Request the reported Emax associated with Cc1ccsc1C1=Nc2cc(C(=O)NCc3cccnc3)ccc2Sc2ccccc21
102

Request the reported Emax associated with CN(NC(=O)c1ccc2c(c1)N=C(c1ccccc1F)c1ccccc1S2)C1CCCCC1
74

Request the reported Emax associated with O=C(NCc1cccc(Cl)c1)c1ccc2c(c1)N=C(N1CCCCC1)c1ccccc1[S+]2[O-] (stereo not shown) [drawing 758]
71

Request the reported Emax associated with CCCCCC1=Nc2cc(C(=O)N3CCN(c4ccc(C)cc4C)CC3)ccc2Sc2ccccc21
107

Request the reported Emax associated with CCCCNC(=O)c1ccc2c(c1)N=C(c1ccc(Cl)cc1)c1sccc1S2 [drawing 657]
122

Request the reported Emax associated with CCONC(=O)c1ccc2c(c1)N=C(c1ccccc1Cl)c1ccccc1S2
19

Request the reported Emax associated with CCCCNC(=O)c1ccc2c(c1)N=C(c1ncccc1C)c1ccccc1S2
85

Request the reported Emax associated with COc1ccc(C2=Nc3cc(C(=O)NC4CCCC4)ccc3Sc3ccccc32)cc1 [drawing 852]
103

Request the reported Emax associated with CCCC1=Nc2cc(C(=O)N3CCC(N4CCCCC4)CC3)ccc2Sc2ccccc21
128

Request the reported Emax associated with O=C(NCc1cccs1)c1ccc2c(c1)N=C(c1ccc(F)cc1)c1ccccc1S2 [drawing 571]
97

Request the reported Emax associated with CCCCN(C)C(=O)c1ccc2c(c1)N=C(c1ncccc1C)c1ccccc1S2
14

Request the reported Emax associated with O=C(NCc1ccncc1)c1ccc2c(c1)N=C(c1ccccc1F)c1ccccc1S2
94

Request the reported Emax associated with CC(C)NC(=O)c1ccc2c(c1)N=C(c1ccc(Cl)s1)c1ccccc1S2 [drawing 550]
78

Request the reported Emax associated with CC(C)NC(=O)c1ccc2c(c1)N=C(c1ccccc1F)c1ccccc1S2
82
